Biological target: Luciferin 4-monooxygenase (Photinus pyralis)
Experiment: qHTS profiling assay for firefly luciferase inhibitor/activator using purifed enzyme and Km concentrations of substrates (counterscreen for miR-21 project); note: nearly all actives have a fitted effect of over 55% in size
Conditions: purified FLuc, luminescence inhibition; series mostly up to 57.5 µM
Hit rate of the full screen: of about 360,000 compounds, about 25,000 (6.9%) were called active. Inconclusive results (about 9%) are left out. What follows is part of a selection rich in actives, with near analogues and random picks from the rest.
recorded.metric: outcome

Please review the following examples before continuing.
>>> df
                                   compound  recorded_metric  assay_result
0  COC(=O)C1=C(c2ccc(F)cc2F)C[C@@H]2CC[C@H]1N2C(=O)NC1CC1          outcome      inactive
1  CCCCCn1c(=O)c(C(=O)NCc2ccccn2)c(O)c2ccccc21          outcome      inactive
2  Cc1cc(C(=O)OCC(=O)Nc2c(F)cccc2F)c(C)n1C1CC1          outcome      inactive
3  COC(=O)C1=C(c2ccccc2OCc2ccccc2)C[C@@H]2CC[C@H]1N2C(=O)NCc1ccc(OC)cc1          outcome      inactive

// outcome value for CC1=C(C(=O)Nc2ccccc2)S(=O)(=O)CCO1 : inactive

// outcome value for CCN1C(=O)C(=Cc2c(C)n(CC(=O)NCC3CCCO3)c3ccccc23)C(=O)N(CC)C1=S (stereo not drawn) : inactive

// outcome value for C[C@@]1([C@@H](NP(=O)(c2ccccc2)c2ccccc2)c2ccccc2)C[C@H]1CCO : inactive

// outcome value for CN1CCN(C(=O)COc2ccc(C(C)(C)C)cc2Br)CC1 : inactive
